solubility for assorted molecules
assay: Solubility at pH 7.4; type: physicochemical; settings: buffer
Report the figure in µg/mL without appending any unit label.

[[record]]
molecule = "CCCC(C(N)=O)C(CC(C)C)C(=O)N[C@H]1CCCCN(Cc2cccc(-c3ccc(F)c(Cl)c3)c2)C1=O (single isomer, unassigned)"
endpoint_name = "solubility"
reported_result = 0.1


Proceed to the following item.
Short answer for "CCC[C@H](C(N)=O)[C@@H](CC(C)C)C(=O)N[C@H]1CCCCN(Cc2cccc(Oc3ccccc3)c2)C1=O" : solubility was 1

====

target: Matrilysin (Homo sapiens, UniProt P09237)
Sequence (P09237 whole entry): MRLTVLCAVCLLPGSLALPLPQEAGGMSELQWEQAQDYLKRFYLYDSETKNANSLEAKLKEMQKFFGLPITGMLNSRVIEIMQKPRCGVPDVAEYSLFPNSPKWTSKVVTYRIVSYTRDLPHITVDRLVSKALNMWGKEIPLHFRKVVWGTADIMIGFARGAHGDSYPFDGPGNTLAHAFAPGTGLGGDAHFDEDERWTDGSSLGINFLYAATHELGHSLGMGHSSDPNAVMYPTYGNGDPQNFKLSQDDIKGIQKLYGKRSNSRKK
Endpoint name: pKi
# pKi is unitless: minus log10 of the molar concentration; print number only

So the reported pKi for "CCC[C@H](C(=O)NO)[C@@H](CC(C)C)C(=O)N[C@H]1CCCCN(Cc2cccc(Oc3ccccc3)c2)C1=O" , on Matrilysin (Homo sapiens, UniProt P09237), turned out to be 6.18

====

target: UniProt P08253; assay: Inhibition of MMP2
Sequence (P08253 whole entry): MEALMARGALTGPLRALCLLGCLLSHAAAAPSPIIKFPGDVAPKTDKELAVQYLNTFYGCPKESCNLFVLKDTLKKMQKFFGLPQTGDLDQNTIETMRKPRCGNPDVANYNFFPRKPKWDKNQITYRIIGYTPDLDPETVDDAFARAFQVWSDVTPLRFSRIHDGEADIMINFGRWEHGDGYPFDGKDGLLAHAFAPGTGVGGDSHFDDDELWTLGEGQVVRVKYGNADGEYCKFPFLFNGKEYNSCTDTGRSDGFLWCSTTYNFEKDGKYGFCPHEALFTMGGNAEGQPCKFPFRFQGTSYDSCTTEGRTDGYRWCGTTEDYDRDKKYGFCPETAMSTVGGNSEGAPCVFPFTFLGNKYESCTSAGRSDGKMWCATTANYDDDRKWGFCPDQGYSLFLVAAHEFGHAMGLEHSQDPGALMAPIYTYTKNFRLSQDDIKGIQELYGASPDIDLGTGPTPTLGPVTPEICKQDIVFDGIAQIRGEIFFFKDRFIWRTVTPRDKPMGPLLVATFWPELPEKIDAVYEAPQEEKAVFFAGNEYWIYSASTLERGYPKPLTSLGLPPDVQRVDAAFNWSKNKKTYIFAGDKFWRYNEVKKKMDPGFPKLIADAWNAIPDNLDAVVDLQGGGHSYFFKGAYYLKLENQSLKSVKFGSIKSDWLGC
Endpoint name: Ki (nM)
Report the figure in nM without appending any unit label.

So the reported Ki for "CCC[C@H](C(=O)NO)[C@@H](CC(C)C)C(=O)N[C@H]1CCCCN(Cc2cccc(Oc3ccccc3)c2)C1=O" , on UniProt P08253, turned out to be 7

====

target: Interstitial collagenase (Homo sapiens, UniProt P03956)
Sequence (P03956 whole entry): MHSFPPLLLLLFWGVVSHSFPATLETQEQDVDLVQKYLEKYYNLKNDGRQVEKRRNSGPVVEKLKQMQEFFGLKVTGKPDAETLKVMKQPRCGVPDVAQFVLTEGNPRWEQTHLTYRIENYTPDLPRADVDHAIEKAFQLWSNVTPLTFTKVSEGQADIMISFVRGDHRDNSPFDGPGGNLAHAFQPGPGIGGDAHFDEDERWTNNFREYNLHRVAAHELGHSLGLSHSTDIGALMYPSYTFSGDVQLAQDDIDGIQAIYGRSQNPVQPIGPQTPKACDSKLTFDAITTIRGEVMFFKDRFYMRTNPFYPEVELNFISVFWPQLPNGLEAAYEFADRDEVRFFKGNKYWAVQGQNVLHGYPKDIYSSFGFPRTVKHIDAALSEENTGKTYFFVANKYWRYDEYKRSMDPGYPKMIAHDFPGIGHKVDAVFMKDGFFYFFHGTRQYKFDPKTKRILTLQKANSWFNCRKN
Endpoint name: Ki
Give the figure together with its unit, number first.

So the reported Ki for "CCC[C@H](C(=O)NO)[C@@H](CC(C)C)C(=O)N[C@H]1CCCCN(Cc2cccc(Oc3ccccc3)c2)C1=O" , on Interstitial collagenase (Homo sapiens, UniProt P03956), turned out to be 21 nM

====

assay: Cmax in Beagle dog at 1 mg/kg, po; format: ADME, organism-based, Canis lupus familiaris; design: dose 1 mg/kg, route oral; conditions: in vivo
Endpoint name: Cmax (nM)
Report the figure in nM without appending any unit label.

Short answer for CCCC(C(N)=O)C(CC(C)C)C(=O)N[C@H]1CCCCN(Cc2cccc(-c3ccc(F)c(Cl)c3)c2)C1=O (single isomer, unassigned) : Cmax was 116

====

target: Stromelysin-2 (Homo sapiens)
Sequence (P09238 whole entry): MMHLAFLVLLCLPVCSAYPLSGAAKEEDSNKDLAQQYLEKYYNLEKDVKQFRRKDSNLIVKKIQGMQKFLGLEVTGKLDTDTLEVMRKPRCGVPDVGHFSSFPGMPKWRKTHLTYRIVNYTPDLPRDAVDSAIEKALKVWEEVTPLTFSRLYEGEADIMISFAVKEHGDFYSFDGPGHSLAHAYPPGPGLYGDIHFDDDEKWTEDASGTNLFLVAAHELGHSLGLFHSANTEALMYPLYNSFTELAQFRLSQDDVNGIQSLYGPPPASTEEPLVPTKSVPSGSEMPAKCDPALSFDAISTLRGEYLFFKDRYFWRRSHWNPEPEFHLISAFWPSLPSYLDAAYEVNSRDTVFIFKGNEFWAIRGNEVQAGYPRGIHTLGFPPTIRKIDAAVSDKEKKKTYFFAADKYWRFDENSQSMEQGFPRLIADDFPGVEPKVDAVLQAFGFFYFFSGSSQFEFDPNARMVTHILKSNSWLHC
Endpoint name: Ki
Give the figure together with its unit, number first.

So the reported Ki for "CCC[C@H](C(=O)NO)[C@@H](CC(C)C)C(=O)N[C@H]1CCCCN(Cc2cccc(Oc3ccccc3)c2)C1=O" , on Stromelysin-2 (Homo sapiens), turned out to be 190 nM

====

biological target: Disintegrin and metalloproteinase domain-containing protein 17 (Homo sapiens, UniProt P78536)
Sequence (P78536 whole entry, the tested form may be a part): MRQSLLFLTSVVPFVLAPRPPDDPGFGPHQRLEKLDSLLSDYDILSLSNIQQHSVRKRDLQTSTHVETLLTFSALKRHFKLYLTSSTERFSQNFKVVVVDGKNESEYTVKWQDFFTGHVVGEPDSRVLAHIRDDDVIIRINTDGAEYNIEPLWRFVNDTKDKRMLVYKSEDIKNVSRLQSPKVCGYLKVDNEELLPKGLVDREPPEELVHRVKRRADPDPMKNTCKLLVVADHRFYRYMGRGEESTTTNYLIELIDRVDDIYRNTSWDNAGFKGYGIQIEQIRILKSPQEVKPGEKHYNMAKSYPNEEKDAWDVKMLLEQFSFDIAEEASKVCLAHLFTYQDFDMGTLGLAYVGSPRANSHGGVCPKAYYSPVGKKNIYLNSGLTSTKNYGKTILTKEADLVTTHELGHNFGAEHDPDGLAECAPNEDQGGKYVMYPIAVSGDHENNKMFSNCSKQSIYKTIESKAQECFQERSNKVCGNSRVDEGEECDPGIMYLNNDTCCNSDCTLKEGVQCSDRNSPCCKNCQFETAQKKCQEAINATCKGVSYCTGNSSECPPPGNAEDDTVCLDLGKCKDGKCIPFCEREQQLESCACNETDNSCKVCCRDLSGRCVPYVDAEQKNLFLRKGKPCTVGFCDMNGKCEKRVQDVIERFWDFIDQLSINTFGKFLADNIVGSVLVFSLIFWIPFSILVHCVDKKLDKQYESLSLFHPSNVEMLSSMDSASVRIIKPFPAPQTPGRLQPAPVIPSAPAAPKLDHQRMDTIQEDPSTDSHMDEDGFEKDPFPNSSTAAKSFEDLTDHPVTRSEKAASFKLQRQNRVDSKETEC
Endpoint name: Ki (nM)
Report the figure in nM without appending any unit label.

Short answer for "CCC[C@H](C(=O)NO)[C@@H](CC(C)C)C(=O)N[C@H]1CCCCN(Cc2cccc(Oc3ccccc3)c2)C1=O" : Ki was 4

====

target: Matrix metalloproteinase-9 (Homo sapiens, UniProt P14780)
Sequence (P14780 whole entry): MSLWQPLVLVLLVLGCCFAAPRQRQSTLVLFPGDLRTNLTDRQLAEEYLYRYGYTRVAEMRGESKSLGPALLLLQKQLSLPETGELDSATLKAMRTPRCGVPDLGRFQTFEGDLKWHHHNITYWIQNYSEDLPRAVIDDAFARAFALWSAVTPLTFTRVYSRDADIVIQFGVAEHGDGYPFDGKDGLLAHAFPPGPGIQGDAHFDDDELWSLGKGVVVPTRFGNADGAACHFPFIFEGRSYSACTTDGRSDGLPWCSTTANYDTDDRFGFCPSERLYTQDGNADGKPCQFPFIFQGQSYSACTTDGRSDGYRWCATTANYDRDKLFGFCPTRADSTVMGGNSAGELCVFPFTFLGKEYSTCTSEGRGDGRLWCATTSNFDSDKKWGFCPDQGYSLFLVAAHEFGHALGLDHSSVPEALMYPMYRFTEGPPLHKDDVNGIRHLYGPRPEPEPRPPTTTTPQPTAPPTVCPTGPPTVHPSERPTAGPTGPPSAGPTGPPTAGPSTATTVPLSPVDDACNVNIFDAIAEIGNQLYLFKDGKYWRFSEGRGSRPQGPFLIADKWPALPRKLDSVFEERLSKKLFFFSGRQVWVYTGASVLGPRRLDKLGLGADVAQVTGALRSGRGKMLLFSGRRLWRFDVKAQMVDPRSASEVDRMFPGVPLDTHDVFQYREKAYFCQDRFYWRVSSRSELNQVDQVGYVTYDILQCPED
Endpoint name: pKi
# pKi is unitless: minus log10 of the molar concentration; print number only

So the reported pKi for "CCC[C@H](C(=O)NO)[C@@H](CC(C)C)C(=O)N[C@H]1CCCCN(Cc2cccc(Oc3ccccc3)c2)C1=O" , on Matrix metalloproteinase-9 (Homo sapiens, UniProt P14780), turned out to be 8.30

====

assay: Cmax in Beagle dog at 0.5 mg/kg, po; format: ADME, organism-based, Canis lupus familiaris; design: dose 0.5 mg/kg, route oral; conditions: in vivo
Cmax for assorted compounds
Report the figure in nM without appending any unit label.

[[record]]
smiles_representation = "CCC[C@H](C(N)=O)[C@@H](CC(C)C)C(=O)N[C@H]1CCCCN(Cc2cccc(Oc3ccccc3)c2)C1=O"
endpoint_name = "Cmax"
reported_result = 25


Proceed to the following item.
Short answer for "CCC[C@H](C(N)=O)[C@@H](CC(C)C)C(=O)N[C@H]1CCCCN(Cc2cccc(Nc3ccccc3)c2)C1=O" : Cmax was 17

Origin of measurements: ChEMBL document CHEMBL1147000
